Answer each item with its documented viability.
assay: in vitro; settings: human, cell viability (% of DMSO control), Concentration 10
In your response, the unit should come after the numeric value.

CCN(CC)CCCC(C)Nc1ccnc2cc(Cl)ccc12 (centres unmarked) :: 108%

Challenge: I would be grateful if you could share the reported viability for CCC(CC)COC(=O)[C@H](C)N[P@](=O)(OC[C@H]1O[C@@](C#N)(c2ccc3c(N)ncnn23)[C@H](O)[C@@H]1O)Oc1ccccc1 .
Response given: 84.9%

====

test: in vitro; settings: human, CC50
parameterMeasured: CC50

COC(=O)N[C@H](C(=O)N1CC2(CC2)C[C@H]1c1ncc(-c2ccc3c(c2)C(F)(F)c2cc(-c4ccc5nc([C@@H]6[C@H]7CC[C@H](C7)N6C(=O)[C@@H](NC(=O)OC)C(C)C)[nH]c5c4)ccc2-3)[nH]1)C(C)C :: > 50 µM
CC(C)OC(=O)[C@H](C)N[P@](=O)(OC[C@H]1O[C@@](C#N)(c2ccc3c(N)ncnn23)[C@](C)(O)[C@@H]1OC(=O)C(C)C)Oc1ccccc1 :: > 50 µM
CC(C)(C)NC(=O)[C@@H]1C[C@@H]2CCCC[C@@H]2CN1C[C@@H](O)[C@H](Cc1ccccc1)NC(=O)[C@H](CC(N)=O)NC(=O)c1ccc2ccccc2n1 :: 35.1 µM
COc1ccc2c(O[C@@H]3C[C@H]4C(=O)N[C@]5(P(=O)(O)Cc6c(F)cccc6F)C[C@H]5CCCCCCC[C@H](NC(=O)OC5CCCC5)C(=O)N4C3)cc(-c3csc(NC(C)C)n3)nc2c1Cl :: 31.8 µM
CC[C@@H]1C[C@]1(NC(=O)[C@@H]1C[C@@H](Oc2cc(-c3csc(NC(C)C)n3)nc3c(Cl)c(OCCN4CCOCC4)ccc23)CN1C(=O)[C@@H](NC(=O)O[C@@H]1C[C@@H]2C[C@@H]2C1)C(C)(C)C)C(=O)O :: > 50 µM
CC1=CC[C@H](C(=O)N(c2cc(C#CC(C)(C)C)sc2C(=O)O)[C@H]2CC[C@](O)(CO[C@H]3CCOC3)CC2)CC1 :: > 50 µM
N#C[C@@]1(c2ccc3c(N)ncnn23)O[C@H](CO)[C@@H](O)[C@H]1O :: > 50 µM
Nc1ccn(C[C@@H](CO)OCP(=O)(O)O)c(=O)n1 :: > 50 µM
CC(C)CN(C[C@@H](O)[C@H](Cc1ccccc1)NC(=O)O[C@H]1CCOC1)S(=O)(=O)c1ccc(N)cc1 :: > 50 µM
CCC[C@@]1(CCc2ccccc2)CC(O)=C([C@H](CC)c2cccc(NS(=O)(=O)c3ccc(C(F)(F)F)cn3)c2)C(=O)O1 :: 28.4 µM

Respectfully, I request CC50 for each entry included below.
1. O=C(Nc1ccc([N+](=O)[O-])cc1Cl)c1cc(Cl)ccc1O [Niclosamide]
2. CC#CC(=O)N1CC[C@@H](n2c(=O)n(-c3ccc(Oc4ccccc4)cc3)c3c(N)ncnc32)C1

Response given:
1.28 µM
> 50 µM

====

test: Cytotoxicity assay (CCK-8, 72 h) in Vero E6 cells; assay type: cell-based, African green monkey; conditions: African green monkey, Vero E6 cells, Vero; Concentration 0.00152416; two replicates; read-out: cell viability (% of DMSO control)
parameterMeasured: viability at 72 h
# output: numeric value plus its unit

Give viability at 72 h for each of the items listed below.
1. CCC(CC)COC(=O)[C@H](C)N[P@](=O)(OC[C@H]1O[C@@](C#N)(c2ccc3c(N)ncnn23)[C@H](O)[C@@H]1O)Oc1ccccc1
2. CCN(CC)CCCC(C)Nc1ccnc2cc(Cl)ccc12 (centres unmarked)

Response given:
1: 100%; 2: 112%

====

test: in vitro; conditions: human, CC50
Please provide measured CC50 for the entries that follow.

Consider the reported CC50 for these molecules:
Cc1c(O)cccc1C(=O)N[C@@H](CSc1ccccc1)[C@H](O)CN1C[C@H]2CCCC[C@H]2C[C@H]1C(=O)NC(C)(C)C :: 12 µM
CC(C)CN(C[C@@H](O)[C@H](Cc1ccccc1)NC(=O)O[C@H]1CO[C@H]2OCC[C@H]21)S(=O)(=O)c1ccc(N)cc1 :: > 50 µM
CC(C)OC(=O)[C@H](C)N[P@](=O)(OC[C@H]1O[C@@H](n2ccc(=O)[nH]c2=O)[C@](C)(F)[C@@H]1O)Oc1ccccc1 :: > 50 µM
CC(C)(C)NC(=O)[C@@H]1CN(Cc2cccnc2)CCN1C[C@@H](O)C[C@@H](Cc1ccccc1)C(=O)N[C@H]1c2ccccc2C[C@H]1O :: > 50 µM

Please go through the list and note CC50 for each molecule.
1. CC(C)OC(=O)[C@H](C)N[P@](=O)(CO[C@H](C)Cn1cnc2c(N)ncnc21)Oc1ccccc1 [Tenofovir alafenamide (TAF), Tenofovir alafenamide]
2. CC(C)c1nc(CN(C)C(=O)N[C@@H](CCN2CCOCC2)C(=O)N[C@H](CC[C@H](Cc2ccccc2)NC(=O)OCc2cncs2)Cc2ccccc2)cs1 [Cobicistat]

Response given:
1. > 50 µM
2. 47.3 µM

====

test: in vitro; details: human, cell viability (% of DMSO control), Concentration 0.00457247
parameterMeasured: viability (%)
One number for each entry, in %.

CCC(CC)COC(=O)[C@H](C)N[P@](=O)(OC[C@H]1O[C@@](C#N)(c2ccc3c(N)ncnn23)[C@H](O)[C@@H]1O)Oc1ccccc1 :: 99.8

Consider now this further compound.
Challenge: Looking for the measured viability of CCN(CC)CCCC(C)Nc1ccnc2cc(Cl)ccc12 (centres unmarked) , can you help?
Response given: 106

====

assay: in vitro; conditions: human, CC50
parameterMeasured: CC50

Consider the worked cases shown below.
Cc1cccc(C)c1OCC(=O)N[C@@H](Cc1ccccc1)[C@@H](O)C[C@H](Cc1ccccc1)NC(=O)[C@H](C(C)C)N1CCCNC1=O [Lopinavir] :: 31.5 µM
Cc1cc(/C=C/C#N)cc(C)c1Nc1ccnc(Nc2ccc(C#N)cc2)n1 [Rilpivirine] :: 14.6 µM
CCC(CC)COC(=O)[C@H](C)N[P@](=O)(OC[C@H]1O[C@@](C#N)(c2ccc3c(N)ncnn23)[C@H](O)[C@@H]1O)Oc1ccccc1 [Remdesivir] :: 32.5 µM
CCOc1nc(N)nc2c1ncn2[C@@H]1O[C@@H]2COP(=O)(OC(C)C)O[C@H]2[C@@]1(C)F (stereo partly drawn) [PSI-352938] :: > 50 µM
O=C1Nc2ccc(Cl)cc2[C@@](C#CC2CC2)(C(F)(F)F)O1 [Efavirenz] :: 37.6 µM

// for each compound below, give its CC50
1. NC(=O)c1nc(F)c[nH]c1=O [Favipiravir (T-705), Favipiravir]
2. Nc1ccn([C@@H]2O[C@@](CO)(CCl)[C@@H](O)[C@H]2F)c(=O)n1 [ALS-8112]
3. NC(=O)c1ncn([C@@H]2O[C@H](CO)[C@@H](O)[C@H]2O)n1 [Ribavirin]
4. Fc1ccccc1-c1nc2ccn(Cc3ccc(-c4ccc(C(F)(F)F)cc4C(F)(F)F)nn3)cc-2n1 [Tegobuvir]

Response given:
> 50 µM
> 50 µM
> 50 µM
17.9 µM

====

assay: in vitro; conditions: human, CC50
parameterMeasured: CC50

Sample records with CC50:
CCOC(=O)/C=C/[C@H](C[C@@H]1CCNC1=O)NC(=O)[C@@H](CC(=O)[C@@H](NC(=O)c1cc(C)on1)C(C)C)Cc1ccc(F)cc1 [Rupintrivir] :: > 50 µM
COC(=O)N[C@H](C(=O)N[C@@H](Cc1ccccc1)[C@@H](O)CN(Cc1ccc(-c2ccccn2)cc1)NC(=O)[C@@H](NC(=O)OC)C(C)(C)C)C(C)(C)C [Atazanavir] :: > 50 µM
C=C1[C@H](CO)[C@@H](O)C[C@@H]1n1cnc2c(=O)[nH]c(N)nc21 [Entecavir] :: > 50 µM
COC[C@H]1C[C@@H](c2ncc(-c3ccc4c(c3)COc3cc5c(ccc6nc([C@@H]7CC[C@H](C)N7C(=O)[C@@H](NC(=O)OC)C(C)C)[nH]c65)cc3-4)[nH]2)N(C(=O)[C@H](NC(=O)OC)c2ccccc2)C1 [Velpatasvir] :: > 50 µM

Could you tell me CC50 for each of these compounds? They are listed below.
1. O=C1c2c(O)c(=O)ccn2N([C@@H]2c3ccccc3SCc3c2ccc(F)c3F)[C@@H]2COCCN12 [Baloxavir]
2. CCC(CC)O[C@@H]1C=C(C(=O)O)C[C@H](N)[C@H]1NC(C)=O [Oseltamivir carboxylate]

Response given:
1: 47 µM; 2: > 50 µM
